Data provenance: PubChem BioAssay

Assay: differential killing of epithelial or mesenchymal cells, primary screen, imaging, PC-3E GFP, TEM4-18 mCherry, co-culture (AID 1345086);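 further: normalised mesenchymal count divided by normalised epithelial count so high means epithelial killing; cells exposed to compound for 72 h before imaging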
Details: imaging cell counts, at 1 µM, actives lie on both sides, counts scaled to control wells, 1 = unselective
Would you mind sorting the entries by red/green cell ratio (normalised) according to these classes? low group (below 0.9), middle group (0.9 to below 1), high group (1 or more)

Examples with answers:
>>> class_assignment("NC(N)=NC(N)=Nc1ccccc1")
"middle group"
>>> class_assignment("CCCCC[C@H](CC(=O)O)C(=O)O")
"middle group"
>>> class_assignment("O=C(O)c1cccc(O)c1O")
"middle group"
>>> class_assignment("NCCc1cnc[nH]1")
"high group"
>>> class_assignment("Cc1[nH]ccc2c1[nH]c1cc(=O)ccc12")
"low group"
>>> class_assignment("COc1ccc2cc([C@H](C)CO)ccc2c1")
"high group"
>>> class_assignment("COc1ccc([C@H]2Oc3cc(OC)cc(OC)c3C[C@H]2O)cc1")
"low group"
>>> class_assignment("CN1CCC(=C2c3ccccc3CCc3cccnc32)CC1")
"low group"
>>> class_assignment("O=C(N/N=C/c1ccc([N+](=O)[O-])o1)c1ccc(O)cc1")
"low group"

Now let's try a different one.
Challenge: Class label required: CC(=O)O[C@@H]1CC2C(C)(CC[C@H](O)C2(C)C)C2CC[C@]3(C)C(=CC(=O)O[C@H]3c3ccoc3)C21C (stereo partly drawn)
Response given: high group

----------
Assay: HTB85 osteosarcoma cell growth inhibition, synergistic combos for chromothripsis tumors, BGB or cisplatin IC20 combos (AID 1671453);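 further: cells exposed for 96 hours before readout; 0% = vehicle DMSO and 100% = high DMSO killing control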
Details: HTB85 osteosarcoma cells, drug combinations, at 0.5 µM, active compounds read high
Label scheme for inhibition: lower than -30% is F, -30% and above is T.

Examples with answers:
>>> class_assignment("O=c1[nH]c(=O)n([C@H]2C[C@H](O)[C@@H](CO)O2)cc1C(F)(F)F")
"T"
>>> class_assignment("C[C@@H](CN1CC(=O)NC(=O)C1)N1CC(=O)NC(=O)C1")
"T"
>>> class_assignment("Nc1ncn([C@H]2C[C@H](O)[C@@H](CO)O2)c(=O)n1")
"T"
>>> class_assignment("Nc1ccc2cc3ccc(N)cc3nc2c1")
"F"
>>> class_assignment("CN1C[C@@H]2C[C@H]1CN2c1cc2c(cc1F)c(=O)c(C(=O)O)cn2C1CC1")
"F"

Challenge: Does O=C(CCCCCCC(=O)Nc1ccccc1)NO have a reported inhibition of at least -30%?
Response given: T

----------
Test: HCT116 colon cancer cell growth inhibition, primary screen, CellTiter-Glo luminescence, NPC library (AID 1117342)
Details: at 20 µM (top of the series)
Would you mind sorting the entries by inhibition of viability according to these classes? band 1: < 10%; band 2: ≥ 10% and < 50%; band 3: ≥ 50%

Examples with answers:
>>> class_assignment("O=C(O)CN(CCN(CC(=O)O)CC(=O)O)CCN(CC(=O)O)CC(=O)O")
"band 3"
>>> class_assignment("CCOC(=O)c1cnc2c(cnn2CC)c1NN=C(C)C")
"band 2"
>>> class_assignment("OC[C@@H](O)[C@@H](O[C@@H]1O[C@H](CO)[C@H](O)[C@H](O)[C@H]1O)[C@H](O)[C@@H](O)CO")
"band 1"
>>> class_assignment("CCn1cc(C(=O)O)c(=O)c2ccc(C)nc21")
"band 2"

Challenge: Class label required: Cn1c(=O)c2c(ncn2CC(=O)O)n(C)c1=O
Response given: band 2

Challenge: Class label required: CN(C(=O)C(Cl)Cl)c1ccc(OC(=O)c2ccco2)cc1
Response given: band 1

Challenge: Class label required: CCCCCCCCCCOc1cc2c(=O)c(C(=O)OCC)c[nH]c2cc1OCC
Response given: band 1

Challenge: Class label required: O=C1c2ccccc2C(=O)C1c1ccc(Br)cc1
Response given: band 3

Challenge: Class label required: Clc1ccc(Cn2c(CN3CCCC3)nc3ccccc32)cc1
Response given: band 2

Challenge: Class label required: CCNC(=O)N1CCN(CCCC(c2ccc(F)cc2)c2ccc(F)cc2)CC1
Response given: band 3
